Source of measurements: the RNAGym collection of RNA variant scans (doi:10.7554/elife.90254)

Recorded self-cleavage for the following variants
B1: LINE1-mini (parent)
chain: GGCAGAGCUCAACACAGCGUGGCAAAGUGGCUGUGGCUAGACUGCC

- Variants of: B1
- method_notes: self-cleavage, relative activity (ratio to wild type); higher = more cleavage; in vitro, sequencing; the parent is a self-cleaving ribozyme

>  <variant_identifier>
C31A U43G

>  <self-cleavage>
0.15

$$$$
>  <variant_identifier>
A11U A12C

>  <self-cleavage>
0.04

$$$$
>  <variant_identifier>
A16U U32G

>  <self-cleavage>
0.29

$$$$

I am curious: what self-cleavage value has been reported for G35A G36A ?
0.17

What value of self-cleavage has been recorded for this entry: G30U C31G
0.06

Param item = U32G A39C ; retrieve measured self-cleavage.
0.09

# query: self-cleavage of entry C10G U34G
0.03

What does the data say about its self-cleavage? Entry: C10U G29A
0.18

I have this variant here, U9G G35U , and I need its recorded self-cleavage.
0.07

Suppose we examine the variant G5U C45U ; what self-cleavage value has been reported?
0.08

Requested field: self-cleavage. Item: U28C G30C
0.64
